Hey, just so you know, these numbers are from ChEMBL document CHEMBL3271991.

Experiment: Toxicity in ip dosed mouse
Type: organism-based
Conditions: in vivo
quantity-measured: LD50 (mg/kg)
Kindly answer with a numeric value in mg/kg, unit omitted.

Q: Quick check: LD50 of CCN(CC)C(=O)[C@H]1CN2CCc3cc(OC)c(OC)cc3[C@H]2CO1.Cl (racemic) ?
A: 1100

---

Assignment: determine reported ED50 for the given molecules.
System: Mus musculus
Experiment: Neuroleptic activity in ip dosed mouse assessed as blockade of righting reflex by measuring failure to right to normal position measured for 30 secs
Type: functional
Kindly answer with a numeric value in mg/kg, unit omitted.

Q: Hi! What's the reported ED50 for CN(C)CCCN1c2ccccc2Sc2ccc(Cl)cc21 [CHLORPROMAZINE] on Mus musculus?
A: 115

Q: Hi! What's the reported ED50 for CCCC(C)(COC(N)=O)COC(N)=O [MEPROBAMATE] on Mus musculus?
A: 320

Q: Hi! What's the reported ED50 for CCC1(c2ccccc2)C(=O)NC(=O)NC1=O [PHENOBARBITAL] on Mus musculus?
A: 140

Q: Hi! What's the reported ED50 for COc1cc2c(cc1OC)[C@H]1CO[C@@H](C(=O)N3CCCCC3)CN1CC2 (relative stereo) on Mus musculus?
A: 280

---

Test system: Mus musculus
Assay: Neuroleptic activity in ip dosed mouse assessed as blockade of prehensile reflex by measuring failure to hang measured for 5 secs
Format: functional
Conditions: Mus musculus, ip; read-out: ED50
Each record is given true (1) if its reported ED50 is strictly below 200 mg/kg. Records at or above 200 mg/kg are given false (0).

Q: Here's an entry: `CCC1(c2ccccc2)C(=O)NC(=O)NC1=O` . Is its ED50 below 200 mg/kg?
A: true (1)

Q: Here's an entry: COc1cc2c(cc1OC)[C@H]1CO[C@H](C#N)CN1CC2 (relative stereo) . Is its ED50 below 200 mg/kg?
A: false (0)

Q: Here's an entry: CCCC(C)(COC(N)=O)COC(N)=O [MEPROBAMATE] . Is its ED50 below 200 mg/kg?
A: false (0)

Q: Here's an entry: `CN(C)CCCN1c2ccccc2Sc2ccc(Cl)cc21` . Is its ED50 below 200 mg/kg?
A: true (1)

Q: Here's an entry: COc1cc2c(cc1OC)[C@H]1CO[C@@H](C(=O)N3CCCCC3)CN1CC2 (relative stereo) . Is its ED50 below 200 mg/kg?
A: false (0)

Q: Here's an entry: CCN(CC)C(=O)C1CN2CCc3cc(OC)c(OC)cc3C2CO1 (stereo in doubt; 19) . Is its ED50 below 200 mg/kg?
A: false (0)

Q: Here's an entry: CCN(CC)C(=O)[C@H]1CN2CCc3cc(OC)c(OC)cc3[C@H]2CO1 (relative stereo) . Is its ED50 below 200 mg/kg?
A: false (0)

Q: Here's an entry: COc1cc2c(cc1OC)[C@H]1CO[C@@H](C(=O)N3CCCC3)CN1CC2 (relative stereo) . Is its ED50 below 200 mg/kg?
A: false (0)

Q: Here's an entry: COc1cc2c(cc1OC)[C@H]1CO[C@@H](C(=O)N3CCOCC3)CN1CC2 (relative stereo) . Is its ED50 below 200 mg/kg?
A: false (0)

Q: Here's an entry: CCN(CC)C(=O)[C@H]1CN2CCc3cc(OC)c(OC)cc3[C@H]2CO1.Cl (racemic) . Is its ED50 below 200 mg/kg?
A: false (0)
